Attribution: the Kinase Knowledgebase extract (Sharma et al. 2016)

Measured pIC50 of individual entries
Target: UniProtKB Q16539
Test: Inhibition of LPS Stimulated TNF Production by U937 Cells
Quick note: pIC50 means taking -log10 of the concentration in moles per liter.

>>> valuemeasured("CCOC(=O)CNC(=O)NCCc1[nH]nc(-c2ccc(F)cc2)c1-c1ccncc1")
5.96
>>> valuemeasured("COc1ccc(CC(=O)NCc2[nH]nc(-c3ccc(F)cc3)c2-c2ccncc2)cc1OC")
5.00
>>> valuemeasured("Cc1ccc(S(=O)(=O)NCc2[nH]nc(-c3ccc(F)cc3)c2-c2ccncc2)cc1")
5.89

-- ask Return reported pIC50; argument: FC(F)(F)c1cccc(-c2n[nH]cc2-c2ccncc2)c1
-- reply 7.06

-- ask Can you check O=C(c1ccccc1F)N1CCC(c2[nH]nc(-c3ccc(F)cc3)c2-c2ccncc2)CC1 next?
-- reply 6.39

-- ask Moving on to Cc1ccc(S(=O)(=O)N[C@H](CCc2ccccc2)C(=O)NCc2[nH]nc(-c3ccc(F)cc3)c2-c2ccncc2)cc1
-- reply 5.00

-- ask Follow-up item: CCS(=O)(=O)NCc1[nH]nc(-c2ccc(F)cc2)c1-c1ccncc1
-- reply 5.30

-- ask Input Cc1n[nH]c(-c2cccc(Cl)c2)c1-c1ccncc1
-- reply 7.13

-- ask Another molecule to check: CCN(CC)CCn1cc(-c2ccncc2)c(-c2ccc(F)cc2)n1
-- reply 6.29

====

Molecular target: MAPK14 (human)
Assay: Inhibition of LPS Stimulated TNF Production by U937 Cells
Conditions: concentration not given here
Tick condition met if inhibition is 40% or greater. Tick condition not met if inhibition is less than 40%.

Sample answers from the record:
>>> classification("C[C@H](NC(=O)c1ccc(F)c(F)c1F)c1[nH]nc(-c2ccc(F)cc2)c1-c1ccncc1")
"condition not met"
>>> classification("C[C@H](NC(=O)c1cc2ccccc2s1)c1[nH]nc(-c2ccc(F)cc2)c1-c1ccncc1")
"condition met"
>>> classification("C[C@@H](NC(=O)c1ccc(F)c(F)c1)c1[nH]nc(-c2ccc(F)cc2)c1-c1ccncc1")
"condition met"
>>> classification("CCNC(=O)NCCc1[nH]nc(-c2ccc(F)cc2)c1-c1ccncc1")
"condition met"
>>> classification("CC(C)=CC(=O)NCCc1[nH]nc(-c2ccc(F)cc2)c1-c1ccncc1")
"condition not met"
>>> classification("C[C@H](NC(=O)c1cc(F)c(F)cc1F)c1[nH]nc(-c2ccc(F)cc2)c1-c1ccncc1")
"condition met"
>>> classification("O=C(NCc1[nH]nc(-c2ccc(F)cc2)c1-c1ccncc1)c1sc2ccccc2c1Cl")
"condition not met"
>>> classification("C[C@H](NC(=O)N(C)C)c1[nH]nc(-c2ccc(F)cc2)c1-c1ccncc1")
"condition met"

Okay, next one:
-- ask Textbook exercise: given the entry CC1(C)[C@H]2CC[C@@]1(CS(=O)(=O)NCCCc1[nH]nc(-c3ccc(F)cc3)c1-c1ccncc1)C(=O)C2 , state whether its inhibition is greater than or equal to 40%.
-- reply condition not met

====

Molecular target: MAPK14 (human)
Experiment: Inhibition of LPS Stimulated TNF Production by U937 Cells
Conditions: concentration not given here
Quick rule for you: inhibition at 60% or higher means class 1, lower means class 0.

Before answering, review these 4 worked examples.
>>> classification("CCCS(=O)(=O)N[C@H](Cc1ccccc1)c1[nH]nc(-c2ccc(F)cc2)c1-c1ccncc1")
"class 0"
>>> classification("C[C@H](NC(=O)c1c(F)cccc1F)c1[nH]nc(-c2ccc(F)cc2)c1-c1ccncc1")
"class 0"
>>> classification("O=C(NCc1[nH]nc(-c2ccc(F)cc2)c1-c1ccncc1)c1ccc(Cl)c(Cl)c1")
"class 0"
>>> classification("O=C(NCc1[nH]nc(-c2ccc(F)cc2)c1-c1ccncc1)c1ccc(Cl)cc1Cl")
"class 0"

Shift focus to the following entry.
-- ask Is inhibition for C[C@@H](NC(=O)c1cccc(F)c1F)c1[nH]nc(-c2ccc(F)cc2)c1-c1ccncc1 at or above 60%?
-- reply class 1

====

Molecular target: MAPK14 (human)
Assay: Inhibition of LPS Stimulated TNF Production by U937 Cells
Conditions: concentration not given here
inhibition by entry:
Numbers only here, please. The scale is %.

Recorded results for 5 compounds are shown here.
>>> valuemeasured("Cc1ccc(S(C)(=O)=O)cc1S(=O)(=O)NCc1[nH]nc(-c2ccc(F)cc2)c1-c1ccncc1")
23
>>> valuemeasured("COc1ccccc1C(=O)NCCc1[nH]nc(-c2ccc(F)cc2)c1-c1ccncc1")
14
>>> valuemeasured("O=C(NCCc1[nH]nc(-c2ccc(F)cc2)c1-c1ccncc1)c1ccc(C(F)(F)F)cc1")
30
>>> valuemeasured("O=C(NCc1[nH]nc(-c2ccc(F)cc2)c1-c1ccncc1)c1cc(F)cc(F)c1")
34
>>> valuemeasured("C[C@@H](NS(=O)(=O)c1ccc(CNC(=O)c2ccccc2)s1)c1[nH]nc(-c2ccc(F)cc2)c1-c1ccncc1")
88

-- ask What measured inhibition goes with Cc1ccc(C)c(S(=O)(=O)NCCCc2[nH]nc(-c3ccc(F)cc3)c2-c2ccncc2)c1 ?
-- reply 36

-- ask Let us now turn to Cc1cccc(S(=O)(=O)N[C@H](C)c2[nH]nc(-c3ccc(F)cc3)c2-c2ccncc2)c1
-- reply 96

-- ask Subsequent entry: COC(=O)C1CN1C(=O)Cn1nc(-c2ccc(F)cc2)c(-c2ccncc2)c1C (stereo unspecified)
-- reply 24

====

Below: a set of entries, each annotated with reported inhibition.
Molecular target: MAPK14 (human) (UniProt Q16539)
Sequence (Q16539 whole entry, looked up): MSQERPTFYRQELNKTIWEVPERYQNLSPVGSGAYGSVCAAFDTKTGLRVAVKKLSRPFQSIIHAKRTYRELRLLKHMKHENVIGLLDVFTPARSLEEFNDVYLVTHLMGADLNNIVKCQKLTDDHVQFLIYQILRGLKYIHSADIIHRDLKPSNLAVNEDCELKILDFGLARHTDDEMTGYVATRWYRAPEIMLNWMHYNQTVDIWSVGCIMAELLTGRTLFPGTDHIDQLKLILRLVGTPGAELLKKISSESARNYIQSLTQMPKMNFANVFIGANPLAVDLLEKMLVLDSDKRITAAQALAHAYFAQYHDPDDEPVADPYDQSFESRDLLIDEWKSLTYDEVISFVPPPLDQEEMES
Test: Inhibition of LPS Stimulated TNF Production by U937 Cells
Details: concentration not given here
Note: unit % is implicit; provide only the numeric part.

As a guide, the following entries are already answered.
>>> valuemeasured("C[C@@H](NC(=O)c1cc(F)cc(F)c1)c1[nH]nc(-c2ccc(F)cc2)c1-c1ccncc1")
48
>>> valuemeasured("O=C(CCC1CC=CC1)NCc1[nH]nc(-c2ccc(F)cc2)c1-c1ccncc1")
84
>>> valuemeasured("C[C@@H](NC(=O)[C@@H]1CCCN1)c1[nH]nc(-c2ccc(F)cc2)c1-c1ccncc1")
27

Proceeding to the next compound to report its inhibition.
-- ask Param readout= inhibition; system= MAPK14 (human) (UniProt Q16539); entry= O=C(NCCc1[nH]nc(-c2ccc(F)cc2)c1-c1ccncc1)C1CCC1 ; returns value.
-- reply 65

====

Biological target: UniProtKB Q16539
Experiment: Inhibition of LPS Stimulated TNF Production by U937 Cells
observedProperty: log10 of IC50 (log10 of the value in µM)
Heads up: the numbers are on a log10 scale; they represent IC50 in µM.

Here's what some known entries look like.
>>> valuemeasured("CC[C@H](C)CNc1cc(-c2c[nH]nc2-c2ccc(Cl)cc2)ccn1")
-1.47
>>> valuemeasured("Cc1ccc(-c2n[nH]c(C)c2-c2ccncc2)cc1")
-0.56
>>> valuemeasured("CN(C)CCn1cc(-c2ccnc(F)c2)c(-c2ccc(F)cc2)n1")
0.62

-- ask Please look up its log10 of IC50: O=C(NCc1[nH]nc(-c2ccc(F)cc2)c1-c1ccncc1)C1CC1
-- reply 0.52

-- ask Can you check Cc1n[nH]c(-c2ccc(F)c(F)c2)c1-c1ccncc1 next?
-- reply -0.48

-- ask Now consider CC(=O)O[C@@H](C)C(=O)NCc1[nH]nc(-c2ccc(F)cc2)c1-c1ccncc1 .
-- reply 0.81

-- ask Clc1ccc(-c2n[nH]cc2-c2ccnc(NCc3ccccn3)c2)cc1 ?
-- reply -0.78

-- ask Can you check COc1ccccc1C(=O)NCc1[nH]nc(-c2ccc(F)cc2)c1-c1ccncc1 next?
-- reply 0.65

-- ask Field entry: O=S(=O)(NCCCc1[nH]nc(-c2ccc(F)cc2)c1-c1ccncc1)c1ccccc1Br
-- reply -0.32

-- ask Now consider Fc1ccc(-c2n[nH]cc2-c2ccnc(NCCn3ccnc3)c2)cc1 .
-- reply -2.13

-- ask Continue with O=C(COc1ccc(Cl)cc1)NCc1[nH]nc(-c2ccc(F)cc2)c1-c1ccncc1
-- reply 0.10

-- ask And COc1ccc(CC(=O)NCCCc2[nH]nc(-c3ccc(F)cc3)c2-c2ccncc2)cc1 ?
-- reply 0.06

-- ask Could you do the same for O=[N+]([O-])c1cccc(S(=O)(=O)NCc2[nH]nc(-c3ccc(F)cc3)c2-c2ccncc2)c1 , please?
-- reply 0.59

====

Molecular target: MAPK14 (human)
Assay: Inhibition of LPS Stimulated TNF Production by U937 Cells
Conditions: concentration not given here
Assign class by inhibition: not lower than 20% means met; lower than 20% means not met.

The examples below pair each entry with its known result.
>>> classification("C[C@H](NC(=O)c1c(Cl)cccc1Cl)c1[nH]nc(-c2ccc(F)cc2)c1-c1ccncc1")
"met"
>>> classification("O=S(=O)(NCCCc1[nH]nc(-c2ccc(F)cc2)c1-c1ccncc1)c1cccc(C(F)(F)F)c1")
"not met"
>>> classification("C[C@@H](NC(=O)NCCCc1[nH]nc(-c2ccc(F)cc2)c1-c1ccncc1)c1ccccc1")
"not met"
>>> classification("Cc1c(-c2ccncc2)c(-c2ccc(F)cc2)nn1CC(=O)N[C@@H](C)c1ccccc1")
"met"
>>> classification("C[C@@H](NC(=O)c1cccnc1)c1[nH]nc(-c2ccc(F)cc2)c1-c1ccncc1")
"met"

-- ask Could you please find out whether CNC(=O)CC[C@H](NC(=O)C(C)C)c1[nH]nc(-c2ccc(F)cc2)c1-c1ccncc1 has inhibition that meets 20% or exceeds it?
-- reply met

-- ask Subsequent entry: CN(C)S(=O)(=O)NCc1[nH]nc(-c2ccc(F)cc2)c1-c1ccncc1
-- reply not met

-- ask Now try O=C(NCCc1[nH]nc(-c2ccc(F)cc2)c1-c1ccncc1)Nc1ccc(OC(F)(F)F)cc1 .
-- reply not met

-- ask // repeat for C[C@@H](NS(=O)(=O)c1ccc(Cl)c(Cl)c1)c1[nH]nc(-c2ccc(F)cc2)c1-c1ccncc1 and report
-- reply met
